- Test system: C. elegans
- MEASUREMENT CONDITIONS: Table S2, C. elegans SS assay, 110 μM, 0 h, averages of 4 data points
Collected Percentage of motility inhibition 0 h values appear next to each entry.
The answer should read as a number with its unit following.

Completed entries (count: 3):
COMPOUND: O=c1cc(-c2ccc(O[C@@H]3O[C@H](CO)[C@@H](O)[C@H](O)[C@H]3O)cc2)oc2cc(O)c([C@@H]3O[C@H](CO)[C@@H](O)[C@H](O)[C@H]3O[C@@H]3OC[C@H](O)[C@H](O)[C@H]3O)c(O)c12 [Vaccarin]
TGT: C. elegans
RESULT: 0%
--
COMPOUND: CO/N=C(\C(=O)N[C@@H]1C(=O)N2C(C(=O)O)=C(C[N+]3(C)CCCC3)CS[C@H]12)c1csc(N)n1.Cl.O.[Cl-] [Cefepime (Dihydrochloride Monohydrate)]
TGT: C. elegans
RESULT: 7%
--
COMPOUND: CC(=O)OC/C1=C/C[C@H]2[C@@H](/C=C(\C)C(=O)[C@@]3(OC(C)=O)C[C@H](C)[C@H](OC(=O)c4ccccc4)[C@@H]3[C@H]1OC(C)=O)C2(C)C [Euphorbia factor L7b]
TGT: C. elegans
RESULT: 14%

**Query** Missing value: Percentage of motility inhibition 0 h, C. elegans, entry CC(C)=CCC[C@H](C)[C@@H]1CC[C@]2(C)C3=C(CC[C@@]12C)[C@@]1(C)CC[C@H](O)C(C)(C)[C@@H]1CC3 [Tirucallol] . Fill in?
**Result** 12%

**Query** Missing value: Percentage of motility inhibition 0 h, C. elegans, entry C=C1C(=O)O[C@@H]2C[C@@]3(C)CCC[C@H](C)C3=C[C@H]12 [Alantolactone] . Fill in?
**Result** 6%

**Query** Missing value: Percentage of motility inhibition 0 h, C. elegans, entry C=C1CC[C@@H]2[C@](C)(CO)[C@H](O)CC[C@]2(C)[C@@H]1/C=C/C1=CCOC1=O [14-Deoxy-11,12-didehydroandrographolide] . Fill in?
**Result** 0%

###

- MEASUREMENT DESCRIPTION: Spheroids toxicity assay (alamarBlue)
- Assay type: cell-based
- MEASUREMENT CONDITIONS: human, HepG2 liver spheroids (3D culture); read-out: Citotoxicity CC50 (μM) Sph
MEASURED PARAMETER: CC50 at 3 d (µM)
// note: answer is a bare numeric in µM

**Query** Give its CC50 at 3 d value. Item: CCCCCCCCN=c1ccn(CCCCCCCCCCn2ccc(=NCCCCCCCC)cc2)cc1 [Octenidine, reference compound]
**Result** 54.1

###

Collected inhibition at 110 µM values appear next to each entry.
- Test system: C. elegans
- MEASUREMENT DESCRIPTION: microbe, parasite or virus in culture
- MEASUREMENT CONDITIONS: Caenorhabditis elegans, 0 h, read-out: Percentage of motility inhibition 0 h, Table S2, C. elegans SS assay, 110 μM, 0 h, averages of 4 data points
// note: answer is a bare numeric in %

**Query** Give its inhibition at 110 µM value. Item: Cc1cc(C)c(Nc2ccnc(Nc3ccc(C#N)cc3)n2)c(C)c1 [Dapivirine]
**Result** 44

**Query** Give its inhibition at 110 µM value. Item: Cn1c(Cc2ccccc2)nc(=O)c2ccccc21 [Arborine]
**Result** 0

**Query** Give its inhibition at 110 µM value. Item: C[C@H]1[C@H](C)CC[C@]2(C(=O)O)CC[C@]3(C)C(=CC[C@@H]4[C@@]5(C)C[C@@H](O)[C@H](O)[C@@](C)(CO)[C@@H]5CC[C@]43C)[C@H]12 [Asiatic acid]
**Result** 41

**Query** Give its inhibition at 110 µM value. Item: C=C1CC[C@@H]2[C@](C)(CO)CCC[C@@]2(C)[C@@H]1CCC1=CCOC1=O [Andrograpanin]
**Result** 3

###

- Test system: C. elegans
- MEASUREMENT DESCRIPTION: microbe, parasite or virus in culture
- MEASUREMENT CONDITIONS: Caenorhabditis elegans, 24 h, read-out: Percentage of motility inhibition 24 h, Table S2, C. elegans SS assay, 110 μM, 24 h, averages of 4 data points
Collected inhibition at 110 µM values appear next to each entry.
// note: answer is a bare numeric in %

**Query** Give its inhibition at 110 µM value. Item: CC(=O)Nc1ncc([N+](=O)[O-])s1 [Nithiamide]
**Result** 7

**Query** Give its inhibition at 110 µM value. Item: C/C(C=O)=C\CC[C@@H](C)[C@H]1CC[C@@]2(C)C3=CC[C@H]4C(C)(C)C(=O)CC[C@]4(C)C3=CC[C@]12C
**Result** 25

###

- Test system: C. elegans
- MEASUREMENT DESCRIPTION: microbe, parasite or virus in culture
- MEASUREMENT CONDITIONS: Caenorhabditis elegans, 24 h, read-out: Percentage of motility inhibition 24 h, Table S2, C. elegans SS assay, 110 μM, 24 h, averages of 4 data points
MEASURED PARAMETER: inhibition at 110 µM (%)
// note: answer is a bare numeric in %

Completed entries (count: 3):
MOLECULE: CC1=CC(=O)[C@@H]2C[C@H]1C2(C)C
TGT: C. elegans
inhibition at 110 µM [%]: 4

MOLECULE: COc1c(-c2ccc3cc(NS(C)(=O)=O)ccc3c2)cc(-n2ccc(=O)[nH]c2=O)cc1C(C)(C)C
TGT: C. elegans
inhibition at 110 µM [%]: 0

MOLECULE: O=C(N/N=C/c1ccc([N+](=O)[O-])o1)c1cc([N+](=O)[O-])cc([N+](=O)[O-])c1O
TGT: C. elegans
inhibition at 110 µM [%]: 6

**Query** Missing value: inhibition at 110 µM, C. elegans, entry CCC[C@H](NC(=O)[C@@H]1[C@H]2CCC[C@H]2CN1C(=O)[C@@H](NC(=O)[C@@H](NC(=O)c1cnccn1)C1CCCCC1)C(C)(C)C)C(=O)C(=O)NC1CC1 . Fill in?
**Result** 0

**Query** Missing value: inhibition at 110 µM, C. elegans, entry CN(C)Cc1c[nH]c2ccccc12 . Fill in?
**Result** 0

**Query** Missing value: inhibition at 110 µM, C. elegans, entry C[C@@H]1O[C@@H](O[C@H]2[C@H](O)[C@@H](O)[C@H](OC[C@H]3O[C@@H](OC(=O)[C@]45CCC(C)(C)C[C@H]4C4=CC[C@@H]6[C@@]7(C)CC[C@H](O[C@@H]8OC[C@H](O)[C@H](O)[C@H]8O)[C@@](C)(CO)[C@@H]7CC[C@@]6(C)[C@]4(C)CC5)[C@H](O)[C@@H](O)[C@@H]3O)O[C@@H]2CO)[C@H](O)[C@H](O)[C@H]1O [Cauloside D] . Fill in?
**Result** 17

**Query** Missing value: inhibition at 110 µM, C. elegans, entry COc1cc(O)c2c(=O)cc(-c3ccc(O)cc3)oc2c1 . Fill in?
**Result** 4

**Query** Missing value: inhibition at 110 µM, C. elegans, entry COc1cc(C(=O)OCCCCNC(=N)N)cc(OC)c1O . Fill in?
**Result** 0

**Query** Missing value: inhibition at 110 µM, C. elegans, entry C[C@H]1[C@H](C)CC[C@]2(C(=O)O)CC[C@]3(C)C(=CC[C@@H]4[C@@]5(C)C[C@@H](O)[C@H](O)[C@@](C)(CO)[C@@H]5CC[C@]43C)[C@H]12 . Fill in?
**Result** 55

###

- Test system: C. elegans
- MEASUREMENT DESCRIPTION: microbe, parasite or virus in culture
- MEASUREMENT CONDITIONS: Caenorhabditis elegans, 24 h, read-out: Percentage of motility inhibition 24 h, Table S2, C. elegans SS assay, 110 μM, 24 h, averages of 4 data points
Please use true whenever inhibition at 110 µM is not below 6%, and false whenever it is.

For orientation, consider the following solved cases.
MOLECULE: O=C1Nc2ccccc2C1=O [Isatin]
CLASS LABEL: false

MOLECULE: Oc1cc(O)c2c(c1)O[C@H](c1ccc(O)c(O)c1)[C@H](O)[C@H]2c1c(O)cc(O)c2c1O[C@H](c1ccc(O)c(O)c1)[C@H](O)C2 [Procyanidin B2]
CLASS LABEL: true

MOLECULE: CCCOc1ccc2nc(NC(=O)OC)[nH]c2c1 [Oxibendazole]
CLASS LABEL: true

MOLECULE: COC(=O)C1=CO[C@@H](O[C@@H]2O[C@H](CO)[C@@H](O)[C@H](O)[C@H]2O)[C@H]2[C@@H]1[C@H](O)C[C@]2(C)OC(C)=O [Barlerin]
CLASS LABEL: true

MOLECULE: C[C@@H]1CC[C@@]2(NC1)O[C@H]1C[C@H]3[C@@H]4CC=C5C[C@@H](O[C@@H]6O[C@H](CO)[C@H](O)[C@H](O[C@@H]7O[C@H](CO)[C@@H](O)[C@H](O)[C@H]7O)[C@H]6O[C@@H]6O[C@@H](C)[C@H](O)[C@@H](O)[C@H]6O)CC[C@]5(C)[C@H]4CC[C@]3(C)[C@H]1[C@@H]2C [Solasonine]
CLASS LABEL: false

MOLECULE: CC(=O)NS(=O)(=O)c1ccc(NC(=O)c2ccccc2C(=O)O)cc1 [Phthalylsulfacetamide]
CLASS LABEL: false

MOLECULE: O=C(/C=C/c1ccccc1)OC[C@H]1O[C@@H](O[C@@H]2OC=C[C@H]3[C@H](O)[C@@H]4O[C@]4(CO)[C@@H]23)[C@H](O)[C@@H](O)[C@@H]1O [Picroside I]
CLASS LABEL: true

MOLECULE: OCc1c[nH]c2ccccc12 [Indole‐3‐carbinol]
CLASS LABEL: true

**Query** Assess whether reported inhibition at 110 µM for C/C=C(\C)C(=O)O[C@H]1[C@H](O)[C@]2(COC(C)=O)[C@H](O)C[C@]3(C)C(=CC[C@@H]4[C@@]5(C)CC[C@H](O[C@@H]6O[C@H](C(=O)O)[C@@H](O[C@@H]7O[C@H](CO)[C@@H](O)[C@H](O)[C@H]7O)[C@H](O)[C@H]6O[C@@H]6O[C@H](CO)[C@@H](O)[C@H](O)[C@H]6O)[C@](C)(CO)[C@@H]5CC[C@]43C)[C@@H]2CC1(C)C [Isoescin IA] sits at 6% or higher.
**Result** false

**Query** Assess whether reported inhibition at 110 µM for CCN1CCN(C(=O)N[C@@H](C(=O)N[C@@H]2C(=O)N3C(C(=O)O)=C(CSc4nnnn4C)CS[C@H]23)c2ccc(O)cc2)C(=O)C1=O [Cefoperazone] sits at 6% or higher.
**Result** true
